Cited source: patent US20230028880A1

tested-on: T1, CD38 (human, UniProt P28907 43-300, limits assumed)
T1 construct: also called cluster of differentiation 38; cyclic ADP ribose hydrolase
experimental-details: ELISA; larger values represent binding
Where no end group is shown, it is not given here. [ ]: non-standard residue; d: D form. Bip = N[C@@H](Cc1ccc(-c2ccccc2)cc1)C(=O)O; NMeF = CN[C@@H](Cc1ccccc1)C(=O)O

>  <binder>
ALH[NMeF]VLP[Bip]VWAC (not fully specified (N-terminus, bridges); printed as A L H MeF V L P Bph V W A C, Alanine variant at position 11) [A L H MeF V L P Bph V W A C]

>  <Binding Assay (ELISA signal)>
0.41

$$$$
>  <binder>
ALH[NMeF]VAP[Bip]VWVC (not fully specified (N-terminus, bridges); printed as A L H MeF V A P Bph V W V C, Alanine variant at position 6) [A L H MeF V A P Bph V W V C]

>  <Binding Assay (ELISA signal)>
0.09

$$$$
